Target: T1, IL-11Rα as used in the Biacore kinetics of Example 14 (UniProt Q14626 23-363, limits assumed)
T1 sequence (looked up): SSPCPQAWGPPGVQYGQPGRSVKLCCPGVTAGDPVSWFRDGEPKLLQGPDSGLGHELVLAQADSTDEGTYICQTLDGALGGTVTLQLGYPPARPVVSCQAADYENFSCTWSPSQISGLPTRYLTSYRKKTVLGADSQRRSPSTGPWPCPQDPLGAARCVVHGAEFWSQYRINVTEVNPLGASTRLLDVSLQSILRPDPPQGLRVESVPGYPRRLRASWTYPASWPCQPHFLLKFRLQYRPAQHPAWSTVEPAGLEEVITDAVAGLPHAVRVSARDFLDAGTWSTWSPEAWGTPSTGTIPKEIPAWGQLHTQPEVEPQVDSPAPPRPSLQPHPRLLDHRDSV
Test: SPR (Biacore T200), multi-cycle kinetics, 25 C, HBS-P+ pH 7.4 with 0.1% BSA
measured_quantity: koff

# binder Humanised BSO-9A7 variant VH3/VL4 (antibody, V domains shown, Variable domains only) VH: QVQLVQSGAEVKKPGASVKVSCKASGYTFTNYWMHWLRQRPGQGLEWIGNIGPSDSKTHYNQKFKDRATLTVDKSTSTAYMELSSLRSEDTAVYYCARGDYVLFTYWGQGTLVTVSS VL: DIVLTQSPATLSLSPGERATLSCRASQSISNNLHWYQQKPGQAPRLLIKYASQSISGIPARFSGSGSGTDFTLTISSLEPEDFAVYYCQQSYSWPLTFGQGTKLEIK ; its koff = 0.000747 s⁻¹

# binder Humanised BSO-9A7 variant VH4/VL2 (antibody, V domains shown, Variable domains only) VH: QVQLVQSGAEVKKPGASVKVSCKASGYTFTNYWMHWLRQRPGQGLEWIGNIGPSDSKTHYNQKFKDRVTMTVDKSTSTAYMELSSLRSEDTAVYYCARGDYVLFTYWGQGTLVTVSS VL: DIVLTQSPATLSLSPGERATLSCRASQSISNNLHWYQQKSGQAPRLLIKYASQSISGIPARFSGSGSGTDFTLTISSLETEDFAVYFCQQSYSWPLTFGQGTKLEIK ; its koff = 0.000932 s⁻¹

# binder Humanised BSO-9A7 variant VH3/VL3 (antibody, V domains shown, Variable domains only) VH: QVQLVQSGAEVKKPGASVKVSCKASGYTFTNYWMHWLRQRPGQGLEWIGNIGPSDSKTHYNQKFKDRATLTVDKSTSTAYMELSSLRSEDTAVYYCARGDYVLFTYWGQGTLVTVSS VL: DIVLTQSPATLSLSPGERATLSCRASQSISNNLHWYQQKPGQAPRLLIKYASQSISGIPARFSGSGSGTDFTLTISSLEPEDFAVYFCQQSYSWPLTFGQGTKLEIK ; its koff = 0.000751 s⁻¹

# binder Humanised BSO-9A7 variant VH4/VL3 (antibody, V domains shown, Variable domains only) VH: QVQLVQSGAEVKKPGASVKVSCKASGYTFTNYWMHWLRQRPGQGLEWIGNIGPSDSKTHYNQKFKDRVTMTVDKSTSTAYMELSSLRSEDTAVYYCARGDYVLFTYWGQGTLVTVSS VL: DIVLTQSPATLSLSPGERATLSCRASQSISNNLHWYQQKPGQAPRLLIKYASQSISGIPARFSGSGSGTDFTLTISSLEPEDFAVYFCQQSYSWPLTFGQGTKLEIK ; its koff = 0.000992 s⁻¹

# binder Humanised BSO-9A7 variant VH3/VL2 (antibody, V domains shown, T0003 heads the columns 'Heavy chain' and 'Light chain', but the entries are variable domains) VH: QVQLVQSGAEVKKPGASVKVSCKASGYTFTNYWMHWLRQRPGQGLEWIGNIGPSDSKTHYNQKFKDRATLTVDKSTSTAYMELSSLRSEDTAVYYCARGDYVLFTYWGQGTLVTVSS VL: DIVLTQSPATLSLSPGERATLSCRASQSISNNLHWYQQKSGQAPRLLIKYASQSISGIPARFSGSGSGTDFTLTISSLETEDFAVYFCQQSYSWPLTFGQGTKLEIK ; its koff = 0.000801 s⁻¹

# binder Anti-IL-11Rα antibody clone BSO-9A7 (antibody, V domains shown, also called RA7; 9A7 VH/VL) VH: QVQLQQPGAELVRPGSSVKLSCKASGYTFTNYWMHWLKQRPVQGLEWIGNIGPSDSKTHYNQKFKDKATLTVDKSSSTAYMQLNSLTSEDSAVYYCARGDYVLFTYWGQGTLVTVSA VL: DIVLTQSPATLSMTPGDSVSLSCRASQSISNNLHWYQQKSHESPRLLIKYASQSISGIPSRFSGSGSGTDFTLSFNSVETEDFGVYFCQQSYSWPLTFGAGTKLELK ; its koff = 0.000926 s⁻¹

# binder Humanised BSO-9A7 variant VH4/VL4 (antibody, V domains shown, Variable domains only; also called printed once as VH4/VH4) VH: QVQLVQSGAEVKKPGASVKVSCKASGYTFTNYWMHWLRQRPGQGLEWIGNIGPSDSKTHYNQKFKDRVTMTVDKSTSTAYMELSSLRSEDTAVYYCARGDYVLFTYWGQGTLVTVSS VL: DIVLTQSPATLSLSPGERATLSCRASQSISNNLHWYQQKPGQAPRLLIKYASQSISGIPARFSGSGSGTDFTLTISSLEPEDFAVYYCQQSYSWPLTFGQGTKLEIK ; its koff = 0.000781 s⁻¹
